Recorded concentration at 1 h, one value per entry.
Assay: Plasma concentrations in infected mice after an oral dose (LC/MS/MS)
Type: in vivo
Conditions: CF-1, mouse, plasma; infected mice (n = 3), oral 100 mg/kg, 1 hour
Recorded endpoint: concentration at 1 h

Molecule: Cc1ncc(-c2cc3c(cc2F)N2C[C@@H](C)O[C@@H](C)[C@@H]2C2(C3)C(=O)NC(=O)NC2=O)cn1 [Comparator Compound from the Literature, reference compound]
Observed measurement: 17100 ng/mL

Molecule: CCc1coc(-c2cc3c(c(F)c2F)N2C[C@H](C)O[C@H](C)[C@H]2C2(C3)C(=O)NC(=O)NC2=O)n1 (racemic) [Example 9]
Observed measurement: 19000 ng/mL

Molecule: Cc1coc(-c2cc(F)c3c(c2)CC2(C(=O)NC(=O)NC2=O)[C@H]2[C@H](C)O[C@H](C)CN32)n1 (single isomer, unassigned) [Example 1]
Observed measurement: 13300 ng/mL
